experiment_summary: Synthesis of SMA via transesterification in the presence of the inhibitors
measurement_context: 500 ppm inhibitor, start of reaction
parameter_measured: Properties start (color of the reaction mixture)

substance_smiles=CN(C)c1ccc2nc3ccc(=[N+](C)C)cc-3sc2c1 recorded_measurement="dark blue solution"
substance_smiles=CCCCCCCCCCCCCCCCS(=O)(=O)[O-].CN(C)c1ccc2nc3ccc(N(C)C)cc3[s+]c2c1.[Cl-].[Na+] recorded_measurement="dark blue solution"
